Target: T1, human GLP-1 receptor (human, UniProt P43220 24-463)
T1 construct: whole, on cells; Assayed as crude membranes of stably transfected HEK293 cells; also called hGLP1R; hGLP-1R
Assay: SPA, displacement of [125I]-GLP-1 from hGLP-1R membranes, 0.1% bacitracin
Assign labels as follows, please: 1 (yes) for Ki below 0.06 µM; 0 (no) for Ki equal to or exceeding 0.06 µM.

| binder | assigned_label |
| --- | --- |
| YXEGTFISDYSILLDKKAQXEFVQWLLAGGPSSGAPPPS (D-Ala2; K17((2-[2-(2-Amino-ethoxy)-ethoxy]-acetyl)2-(γ-Glu)-CO-(CH2)16-CO2H); Aib20; C-terminal amide) [Example 27] | 1 (yes) |
| YXEGTFISDYSILLDKKAQXEFVEWLLAGGPSSGAPPPS (D-Ala2; K17((2-[2-(2-Amino-ethoxy)-ethoxy]-acetyl)2-(γ-Glu)-CO-(CH2)16-CO2H); Aib20; C-terminal amide) [Example 29] | 1 (yes) |
| YXEGTFISDYSILLDKKAQXDFVNWLLEQGPSSGAPPPS (D-Ala2; K17((2-[2-(2-Amino-ethoxy)-ethoxy]-acetyl)2-(γ-Glu)-CO-(CH2)16-CO2H); Aib20; C-terminal amide) [Example 17] | 0 (no) |
| YXEGTFISDYSILLDKKAQXDFVEWLLAQGPSSGAPPPS (D-Ala2; K17((2-[2-(2-Amino-ethoxy)-ethoxy]-acetyl)2-(γ-Glu)-CO-(CH2)16-CO2H); Aib20; C-terminal amide) [Example 16] | 0 (no) |
| YXEGTFISDYSILLDKKAQXDFVNWLLAGGPSSGAPPPS (D-Ala2; K17((2-[2-(2-Amino-ethoxy)-ethoxy]-acetyl)2-(γ-Glu)-CO-(CH2)16-CO2H); Aib20; C-terminal amide) [Example 19] | 1 (yes) |
| YXEGTXISDYSIXLDKKHQXDFVEXLLEGGPSSGAPPPS (Aib2; Iva6; αMeL13; K17((2-[2-(2-Amino-ethoxy)-ethoxy]-acetyl)2-(γ-Glu)-CO-(CH2)18-CO2H); Aib20; 4-Pal25; C-terminal amide) [Example 74] | 0 (no) |
| YXEGTFISDYSILLDKKAQXEFVNWLLAQGPSSGAPPPS (D-Ala2; K17((2-[2-(2-Amino-ethoxy)-ethoxy]-acetyl)2-(γ-Glu)-CO-(CH2)16-CO2H); Aib20; C-terminal amide) [Example 20] | 0 (no) |
| YXEGTFISDYSILLDKKAQXDFVNWLLAQGPSSGAPPPS (D-Ala2; K17((2-[2-(2-Amino-ethoxy)-ethoxy]-acetyl)2-(γ-Glu)-CO-(CH2)16-CO2H); Aib20; C-terminal amide) [Example 2] | 0 (no) |
| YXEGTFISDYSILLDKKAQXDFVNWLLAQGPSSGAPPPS (D-Ala2; K17((2-[2-(2-Amino-ethoxy)-ethoxy]-acetyl)2-(γ-Glu)-CO-(CH2)18-CO2H); Aib20; C-terminal amide) [Example 1] | 1 (yes) |
| YXEGTFISDYSILLDKKHQXDFVNWLLAQGPSSGAPPPS (D-Ala2; K17((2-[2-(2-Amino-ethoxy)-ethoxy]-acetyl)2-(γ-Glu)-CO-(CH2)18-CO2H); Aib20; C-terminal amide) [Example 9] | 0 (no) |
| YXEGTFISDYSILLDKKAQXEFVNWLLEGGPSSGAPPPS (D-Ala2; K17((2-[2-(2-Amino-ethoxy)-ethoxy]-acetyl)2-(γ-Glu)-CO-(CH2)16-CO2H); Aib20; C-terminal amide) [Example 28] | 1 (yes) |
| YXEGTXISDYSIXLDXKHQXDFVEXLLEGGPSSGAPPPS (Aib2; Iva6; αMeL13; Orn16; K17((2-[2-(2-Amino-ethoxy)-ethoxy]-acetyl)2-(γ-Glu)-CO-(CH2)18-CO2H); Aib20; 4-Pal25; C-terminal amide) [Example 76] | 0 (no) |
| YXEGTFISDYSILLDKKAQXDFVNXLLAQGPSSGAPPPS (D-Ala2; K17((2-[2-(2-Amino-ethoxy)-ethoxy]-acetyl)2-(γ-Glu)-CO-(CH2)16-CO2H); Aib20; 4-Pal25; C-terminal amide) [Example 18] | 0 (no) |
| YXEGTXISDYSIXLDKKHQXDFVEXLLEAGPSSGAPPPS (Aib2; Iva6; αMeL13; K17((2-[2-(2-Amino-ethoxy)-ethoxy]-acetyl)2-(γ-Glu)-CO-(CH2)18-CO2H); Aib20; 4-Pal25; C-terminal amide) [Example 88] | 0 (no) |
| YXEGTXISDYSIXLDKKHQXDFVEXLLAGGPSSGAPPPS (Aib2; Iva6; αMeL13; K17((2-[2-(2-Amino-ethoxy)-ethoxy]-acetyl)2-(γ-Glu)-CO-(CH2)18-CO2H); Aib20; 4-Pal25; C-terminal amide) [Example 55] | 0 (no) |

Reference for the values: patent US20210032299A1
